Reported values of IC50 (neutralization in TZM.bl cells) for individual entries
- system_tested: HIV-1 pseudovirus AC10.0.29 (HIV-1)
- protocol_description: cell-based or functional assay
Returns: string containing the number followed by the unit.

Answered examples (3):
{"binder": "MS-88 (antibody, V domains shown) VH: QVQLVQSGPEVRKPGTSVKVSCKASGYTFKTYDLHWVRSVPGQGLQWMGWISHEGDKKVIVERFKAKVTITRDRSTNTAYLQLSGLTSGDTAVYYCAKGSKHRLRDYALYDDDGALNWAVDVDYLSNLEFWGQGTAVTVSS VL: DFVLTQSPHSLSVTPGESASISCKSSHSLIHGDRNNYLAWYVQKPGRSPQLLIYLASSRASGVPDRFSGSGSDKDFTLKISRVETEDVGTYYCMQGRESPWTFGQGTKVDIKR", "endpoint_label": "IC50 (neutralization in TZM.bl cells)", "reported": "0.089 µg/mL"}
{"binder": "MS-84 (antibody, V domains shown) VH: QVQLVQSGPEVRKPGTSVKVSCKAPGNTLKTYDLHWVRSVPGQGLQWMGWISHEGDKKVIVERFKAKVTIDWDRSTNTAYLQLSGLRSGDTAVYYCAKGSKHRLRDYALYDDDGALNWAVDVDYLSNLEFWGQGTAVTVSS VL: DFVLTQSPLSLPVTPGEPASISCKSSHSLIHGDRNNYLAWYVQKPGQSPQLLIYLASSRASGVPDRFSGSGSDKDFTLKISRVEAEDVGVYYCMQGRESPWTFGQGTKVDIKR", "endpoint_label": "IC50 (neutralization in TZM.bl cells)", "reported": "0.052 µg/mL"}
{"binder": "MS-91 (antibody, V domains shown) VH: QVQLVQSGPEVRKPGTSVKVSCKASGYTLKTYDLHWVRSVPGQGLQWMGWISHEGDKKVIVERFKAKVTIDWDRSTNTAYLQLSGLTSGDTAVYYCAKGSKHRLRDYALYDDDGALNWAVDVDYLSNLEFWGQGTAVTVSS VL: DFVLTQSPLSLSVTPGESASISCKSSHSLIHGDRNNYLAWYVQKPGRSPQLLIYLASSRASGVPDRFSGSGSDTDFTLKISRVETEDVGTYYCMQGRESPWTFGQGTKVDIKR", "endpoint_label": "IC50 (neutralization in TZM.bl cells)", "reported": "0.07 µg/mL"}

Give recorded IC50 (neutralization in TZM.bl cells). MS-82 (antibody, V domains shown) VH: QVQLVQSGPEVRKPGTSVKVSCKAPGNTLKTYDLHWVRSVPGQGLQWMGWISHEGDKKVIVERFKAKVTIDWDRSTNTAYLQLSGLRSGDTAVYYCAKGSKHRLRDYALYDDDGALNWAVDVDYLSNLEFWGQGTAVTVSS VL: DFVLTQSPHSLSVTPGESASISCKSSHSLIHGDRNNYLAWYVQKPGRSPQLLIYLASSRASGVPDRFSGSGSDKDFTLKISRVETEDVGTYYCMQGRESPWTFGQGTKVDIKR
0.05 µg/mL

Give me measured IC50 (neutralization in TZM.bl cells), please, for this binder: MS-76 (antibody, V domains shown) VH: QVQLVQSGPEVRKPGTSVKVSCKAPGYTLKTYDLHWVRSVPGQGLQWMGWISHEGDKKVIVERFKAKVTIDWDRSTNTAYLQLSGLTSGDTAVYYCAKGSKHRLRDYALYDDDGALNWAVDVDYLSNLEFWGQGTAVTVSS VL: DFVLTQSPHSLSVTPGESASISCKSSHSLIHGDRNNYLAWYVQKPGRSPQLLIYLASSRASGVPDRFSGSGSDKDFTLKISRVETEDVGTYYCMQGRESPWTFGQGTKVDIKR
0.047 µg/mL

Kindly indicate its recorded IC50 (neutralization in TZM.bl cells). Item: MS-83 (antibody, V domains shown) VH: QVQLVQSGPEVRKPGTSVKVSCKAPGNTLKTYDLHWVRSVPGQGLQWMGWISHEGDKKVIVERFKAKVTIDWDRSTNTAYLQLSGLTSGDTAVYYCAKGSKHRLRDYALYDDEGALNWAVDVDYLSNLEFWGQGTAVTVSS VL: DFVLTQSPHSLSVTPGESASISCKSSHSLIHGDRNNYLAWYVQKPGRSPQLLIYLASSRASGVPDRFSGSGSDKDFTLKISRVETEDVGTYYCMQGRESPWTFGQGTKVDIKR
0.038 µg/mL

Please report the measured IC50 (neutralization in TZM.bl cells) for MS-74 (antibody, V domains shown) VH: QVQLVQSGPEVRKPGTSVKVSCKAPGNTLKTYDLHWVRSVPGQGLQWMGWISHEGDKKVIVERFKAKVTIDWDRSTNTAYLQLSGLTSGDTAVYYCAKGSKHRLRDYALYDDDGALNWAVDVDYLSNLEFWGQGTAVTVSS VL: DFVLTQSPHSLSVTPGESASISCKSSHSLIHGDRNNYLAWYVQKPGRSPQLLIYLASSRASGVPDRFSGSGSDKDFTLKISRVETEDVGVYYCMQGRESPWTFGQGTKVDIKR
0.041 µg/mL

Recall and state the measured IC50 (neutralization in TZM.bl cells) for MS-85 (antibody, V domains shown) VH: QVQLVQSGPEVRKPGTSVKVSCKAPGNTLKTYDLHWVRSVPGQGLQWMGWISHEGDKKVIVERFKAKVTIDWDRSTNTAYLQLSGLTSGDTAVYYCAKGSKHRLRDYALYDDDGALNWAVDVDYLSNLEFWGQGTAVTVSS VL: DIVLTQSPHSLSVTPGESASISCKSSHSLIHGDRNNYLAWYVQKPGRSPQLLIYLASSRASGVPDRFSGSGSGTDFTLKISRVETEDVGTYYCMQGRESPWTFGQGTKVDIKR .
0.044 µg/mL
